These entries and their values trace back to PubChem BioAssay (NCI).

# Lookup of reported growth keyed by entry
Test system: SK-MEL-28 melanoma
Test: NCI-60 one-dose screen, 48 h (100 = growth as untreated, 0 = no growth, -100 = all killed)
Settings: 10 µM unless noted
About 83,000 compounds went through this panel and 20% of them were active in at least one assay; those are over-represented in the sample as a whole. The source made the active and inactive calls. How the source made its calls: active means growth percent below 10; inactive means the rest.

Recorded growth, per entry:
compound: Oc1ccc(Nc2ccc3ccccc3c2)cc1
value-observed: 90.3% (inactive)

compound: CC(C)(C)CC(C)(C)c1ccc(OCCOCCSC(=N)N)cc1
value-observed: -57.1% (active)

compound: CN(C)c1ccc(C(C#N)(c2ccccc2)c2ccc(N(C)C)cc2)cc1
value-observed: 60.2% (inactive)

compound: COc1cc(NC(=O)C2=C(C)NC(C)=C(C(=O)Nc3cc(OC)c(Cl)cc3OC)C2c2cccc([N+](=O)[O-])c2)c(OC)cc1Cl
value-observed: 24.4% (inactive)

compound: Cc1nc([N+](=O)[O-])c(Sc2nncc(-c3ccccc3)n2)n1C
value-observed: 89.1% (inactive)

Asked: Identify measured growth obtained with SK-MEL-28 melanoma for `O=C1C(=O)c2cc([N+](=O)[O-])ccc2-c2ccccc21` .
Given back: -97% (active)

Asked: Give growth only, for `CC[n+]1ccc(Nc2ccc(NC(=O)c3ccc(Nc4cc[n+](CC)c5ccc([N+](=O)[O-])cc45)cc3)cc2)cc1` , using SK-MEL-28 melanoma data.
Given back: 90.3% (inactive)

Asked: Retrieve growth on SK-MEL-28 melanoma; query `Fc1ccc(NCCS)cc1`
Given back: 103% (inactive)

Asked: Identify measured growth obtained with SK-MEL-28 melanoma for CCOc1ccc(C(C[N+](=O)[O-])Sc2ccccc2N)cc1 (stereo not drawn) .
Given back: -36.4% (active)

Asked: Quote SK-MEL-28 melanoma growth for entry `Clc1ccc(-n2ncc3c(NCCCN4CCOCC4)ncnc32)cc1` .
Given back: 94.6% (inactive)

Asked: Report the value of growth obtained on SK-MEL-28 melanoma for `O=C1C=CC(=O)N1c1ccc(O)cc1` .
Given back: 107% (inactive)

Asked: // output growth; input `CC(C)=C1C=C2CC[C@@H]3[C@](C)(CCC[C@@]3(C)C(=O)O)[C@H]2CC1` ; system SK-MEL-28 melanoma
Given back: 107% (inactive)

Asked: # assay system SK-MEL-28 melanoma: give growth of `Cc1nnc(N/N=C/c2ccc([N+](=O)[O-])o2)[nH]c1=O`
Given back: 25.4% (inactive)

Asked: Give growth for CCC(C)(O)Cc1ccc(Cl)cc1 (stereo not drawn) tested on SK-MEL-28 melanoma.
Given back: 112% (inactive)
